Data origin, for the record: ChEMBL document CHEMBL4513216

# PROCEDURE_DETAILS: Toxicity liver stage against HepG2, at 10uM
# Type: cell-based
# Set-up: test concentration 10 uM, cell line HepG2-A16-CD81EGFP
# CONDITION_SUMMARY: human, HepG2-A16-CD81EGFP cells; read-out: INHIBITION
cytotoxicity at 10 µM: recorded values
Respond with the bare value in %.

// solved cases for cytotoxicity at 10 µM follow
O=C(NCC1CCS(=O)(=O)C1)c1ccco1 (stereo unspecified); -7
Cc1oc(NC(=O)C(C)N2CCN(C(C)(C)CO)CC2)c(C#N)c1C (stereo unspecified); -3.62
O=C(CCNS(=O)(=O)c1ccc2c(c1)CCCC2)NCc1ccoc1; 5.86
Cc1csc(N(C)C(=O)C2CC(=O)N(c3ccccc3Cl)C2)n1 (stereo unspecified); 11.8
Cc1cccc(CS(=O)(=O)NCc2nn(C)c3c2CCCC3)c1; 2.37

**Q:** Need cytotoxicity at 10 µM of `CS(=O)(=O)NC[C@H]1Cn2c(-c3ccc(Cl)cc3)cnc2CO1` , thanks.
**A:** -3.58

---

# PROCEDURE_DETAILS: Toxicity liver stage against HepG2, at 10uM
# Format: cell-based
# Set-up: test concentration 10 uM, cell line HepG2-A16-CD81EGFP
# CONDITION_SUMMARY: human, HepG2-A16-CD81EGFP cells; read-out: INHIBITION
READOUT_KIND: cytotoxicity at 10 µM (%)
Reply numerically in %, unit not repeated.

Worked examples, 5 molecules total:
Cc1nc(NC(=O)C2CCCN(C(N)=O)C2)sc1-c1ccccc1 (stereo unspecified); 9.31
CCS(=O)(=O)N1CCC(c2nnc(C3CC3)o2)CC1; -10.7
Cc1cc2nc(CO[C@H]3CN(C4CCC4)C[C@H]3F)[nH]c2cc1C; 1.56
COCCC(=O)N1CCC(Nc2ncc(Cl)cn2)CC1; -6.74
CC(C)=CCN1C(=O)[C@@H]2CC[C@H]1CN(C(=O)CCc1n[nH]c(C)c1C)C2; 5.54

**Q:** Suppose we examine the molecule CCC1COCCN1C(=O)NCc1nccn1Cc1ccccc1 (stereo unspecified) ; what cytotoxicity at 10 µM value has been reported?
**A:** -0.457

**Q:** State the recorded cytotoxicity at 10 µM for this entry: `CCOCCCC(=O)Nc1[nH]nc(-c2ccncc2)c1C`
**A:** 7.98

**Q:** Fill in: cytotoxicity at 10 µM of `CN(Cc1ccc(Cl)s1)C(=O)Cn1nc(-c2ccc(F)cc2)oc1=O` is ___
**A:** -20.4

**Q:** Consider the molecule shown here: `Cc1nnc2n1CCN(c1nn3cc(C(C)(C)C)nc3s1)C2` What is its recorded cytotoxicity at 10 µM?
**A:** -0.903

**Q:** Which cytotoxicity at 10 µM is reported for this molecule? Cc1nc(-c2cccs2)ccc1C(=O)N1CCN(CC(C)O)CC1 (stereo unspecified)
**A:** -45.1

**Q:** Fill in the blank: the reported cytotoxicity at 10 µM of CC(CC(=O)Nc1ncn(CC(=O)NCc2ccccc2)n1)C1CC1 (stereo unspecified) is ____.
**A:** 7.12

---

# PROCEDURE_DETAILS: Toxicity liver stage against HepG2, at 10uM
# Format: cell-based
# Parameters: test concentration 10 uM, cell line HepG2-A16-CD81EGFP
# CONDITION_SUMMARY: human, HepG2-A16-CD81EGFP cells; read-out: INHIBITION
READOUT_KIND: cytotoxicity at 10 µM (%)
# output: bare number, implied unit %

Example results:
Cc1cc(C)n(CC2CCCN2Cc2cscn2)n1 (stereo unspecified); -7.65
CCc1cnc(N2Cc3cnc(C(C)(C)C)nc3C2)nc1; 3.51
CCn1ccnc1C1CCN(Cc2c(F)cccc2F)CC1; -6.82

**Q:** // returns reported cytotoxicity at 10 µM for input `Cc1nc(COC[C@@]23CCC[C@@H]2CN(Cc2cnn(C)c2)C3)cs1`
**A:** -101

**Q:** State the recorded cytotoxicity at 10 µM for this entry: CC(C)(C)c1noc(CCCC(=O)N2CCCC(c3ccn[nH]3)C2)n1 (stereo unspecified)
**A:** -14.2

**Q:** Recorded cytotoxicity at 10 µM of `Cn1ccnc1C(=O)N1CCC2(CCCN2CC2CC2)CC1` , please.
**A:** 8.31

**Q:** Fill in: cytotoxicity at 10 µM of `Cn1cnc(S(=O)(=O)N2C[C@H]3CN(Cc4ccccn4)C[C@H]3C2)c1` is ___
**A:** 4.26

**Q:** Would you mind telling me what cytotoxicity at 10 µM value was observed for `CNS(=O)(=O)Cc1ccc(CNC(=O)Nc2cccnc2)cc1` ?
**A:** 0.684

---

# PROCEDURE_DETAILS: Toxicity liver stage against HepG2, at 10uM
# Type: cell-based
# Design: test concentration 10 uM, cell line HepG2-A16-CD81EGFP
# CONDITION_SUMMARY: human, HepG2-A16-CD81EGFP cells; read-out: INHIBITION
READOUT_KIND: cytotoxicity at 10 µM
Remember to put the unit after the number in your answer.

Some molecules with known cytotoxicity at 10 µM results, for comparison:
CCOC1CCCN(C(=O)c2ccccc2NCc2cccnc2)C1 (stereo unspecified); 0.595%
CC(NCc1ccncc1)c1cc(F)ccc1N1CCN(C)CC1 (stereo unspecified); -2.98%
Cc1ccc(-c2noc(CN3CCC(c4ccn[nH]4)CC3)n2)cc1; 12.6%
COc1cc(NC(=O)C2CC(=O)N(c3cccc(Br)c3)C2)ncn1 (stereo unspecified); 33.4%

**Q:** // returns reported cytotoxicity at 10 µM for input `Cn1cc(CN2CC[C@@H](NS(C)(=O)=O)[C@@H]2Cc2cccnc2)cn1`
**A:** -74.4%

**Q:** Please look up its cytotoxicity at 10 µM: Cc1cnc(CN(C)C2CCN(Cc3cnc(C)s3)C2)o1 (stereo unspecified)
**A:** -0.0499%

**Q:** Would you mind telling me what cytotoxicity at 10 µM value was observed for `COc1nc2c(cc1C(=O)NCCc1nc3ccccc3s1)CCC2` ?
**A:** 5.79%

**Q:** # query: cytotoxicity at 10 µM of entry CCOCC1CN(Cc2ccc(OC)cc2)Cc2nn(CC3CC3)cc21 (stereo unspecified)
**A:** 18%

**Q:** Entry `CCOC(=O)N1CCN(c2nc(NC)c3ccccc3n2)CC1` has what cytotoxicity at 10 µM?
**A:** -9.75%

**Q:** What does the data say about its cytotoxicity at 10 µM? Entry: `CC(C)Nc1ncnc2c1CCN(C(=O)c1ccncc1F)CC2`
**A:** 4.76%

**Q:** Field request: cytotoxicity at 10 µM | item: `CNC(=O)Cn1cc(C#N)c(=O)c2cc(Br)ccc21`
**A:** 23.7%

---

Let's look at some compounds and their measured cytotoxicity at 10 µM.
# PROCEDURE_DETAILS: Toxicity liver stage against HepG2, at 10uM
# Format: cell-based
# Parameters: test concentration 10 uM, cell line HepG2-A16-CD81EGFP
# CONDITION_SUMMARY: human, HepG2-A16-CD81EGFP cells; read-out: INHIBITION
# value in %; strip the unit string

Here is how some compounds turned out for cytotoxicity at 10 µM.
Cc1cc(CN2CCN(CC(O)c3ccc4c(c3)OCO4)CC2)no1 (stereo not drawn); -7.82
COc1ccc(C2=CCN(C(=O)CN(CC(N)=O)C(C)C)CC2)cc1; 23.3
O=C(N[C@@H]1CN(Cc2cccc(F)c2)C[C@H]1O)c1cscn1; -4.66
CCn1nc(C)cc1C(=O)NCc1nc(C)cc(C)n1; -0.745

**Q:** Value lookup for cytotoxicity at 10 µM; key = `CN(CCc1nccs1)C(=O)C1(C#N)CCCCC1`
**A:** 2.91

**Q:** Reported cytotoxicity at 10 µM, compound CC(C)c1nc(CNCC2CCCN2c2cccnn2)cs1 (stereo not drawn) : ____
**A:** -4.84

**Q:** Using the record for `O=C(NC1(c2nccs2)CCCC1)c1cc(C2CC2)[nH]n1` , report its cytotoxicity at 10 µM.
**A:** 2

**Q:** Would you kindly share the measured cytotoxicity at 10 µM for O=C(CN1CCCC(Cn2cncn2)C1)NCCc1cccs1 (stereo not drawn) ?
**A:** -17.6

**Q:** Which cytotoxicity at 10 µM value is on record for c1coc(-c2nc(CNC3CCCNC3)no2)c1 (stereo not drawn) ?
**A:** -25.2

**Q:** Give the measured cytotoxicity at 10 µM of `Cn1cc(C(=O)NCCCN2CCCCCC2=O)c(-c2cccnc2)n1` .
**A:** -8.3

---

# PROCEDURE_DETAILS: Toxicity liver stage against HepG2, at 10uM
# Type: cell-based
# Parameters: test concentration 10 uM, cell line HepG2-A16-CD81EGFP
# CONDITION_SUMMARY: human, HepG2-A16-CD81EGFP cells; read-out: INHIBITION
READOUT_KIND: cytotoxicity at 10 µM (%)
Write the answer as a number in %, unit excluded.

Sample answers from the record:
CC1(C)CN(C(=O)c2ccc3nncn3c2)CCS1; -4.5
CC(C)n1nc(CN(C)C)c2c1CN(CC1CC1)CC2; -3.15

**Q:** What does the record list as cytotoxicity at 10 µM for `CCOCC(=O)NCCn1ccc(-c2ccccn2)n1` ?
**A:** 11.4

**Q:** # cytotoxicity at 10 µM lookup, item `NC(=O)Cn1c(SCc2noc(-c3ccsc3)n2)nnc1C1CC1`
**A:** 15.4

**Q:** May I ask what cytotoxicity at 10 µM has been recorded for COc1ccc(C(C)NC(=O)Nc2nnc(C)s2)c(OC)c1 (configuration not stated) ?
**A:** 9.12

**Q:** Return reported cytotoxicity at 10 µM; argument: `CCCN1CCCn2c(nc(CNC(=O)c3ccsc3)cc2=O)C1`
**A:** 6.89

**Q:** So what does the record say about cytotoxicity at 10 µM for CN1C(=O)C2(CCN(CCO)C2)c2ccccc21 (configuration not stated) ?
**A:** 5.84
